Cited source for all entries: the supplement of paper PMC10567573

Consider the following variants and their measured protein stability index readings.
B1: ZNF649 (parent)
chain: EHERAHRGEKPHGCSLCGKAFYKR

variants of: B1; assay: protein stability index of a GFP-peptide fusion (GPS, HEK-293T) (PSI 1-6); higher = more stable; conditions: c terminus: a fixed tail appended;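 also: lentivirally expressed fusions sorted by FACS into six bins by GFP to DsRed ratio, PSI derived from sequencing read proportions per bin multiplied by bin number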
Number only, no unit.

Completed entries (count: 3):
EHERAHRGEKRHGCSLCGKAFYKR = 1.45
EHERAHRGEKPHGCSLCGKCFYKR = 2
EHERNHRGEKPHGCSLCGKAFYKR = 2.18

Field protein stability index (entry EHERAHRGEKPHGCDLCGKAFYKR ) reads 3.14

Field protein stability index (entry EHERAHRGEKPHGCSLCSKAFYKR ) reads 2.5

Field protein stability index (entry EHERAFRGEKPHGCSLCGKAFYKR ) reads 2.04

Field protein stability index (entry EHERAHRGEKPHGCSLPGKAFYKR ) reads 3.85

Field protein stability index (entry EHERAHRGEKPHGCNLCGKAFYKR ) reads 2.39

Field protein stability index (entry MHERAHRGEKPHGCSLCGKAFYKR ) reads 1.88

Field protein stability index (entry EHERAHRGEKPHGCSDCGKAFYKR ) reads 3.82

Field protein stability index (entry EHERAHRGEKPHGCSRCGKAFYKR ) reads 2.18
